This collection of values is drawn from paper PMC12529666.

# MEASURED_TARGET: AGO2 WT (phosphosite mutant background) (Homo sapiens, UniProt Q9UKV8 1-859, S387D;S824A;S828D;S831D;S834A)
# Sequence (Q9UKV8 whole entry S387D/S824A/S828D/S831D/S834A): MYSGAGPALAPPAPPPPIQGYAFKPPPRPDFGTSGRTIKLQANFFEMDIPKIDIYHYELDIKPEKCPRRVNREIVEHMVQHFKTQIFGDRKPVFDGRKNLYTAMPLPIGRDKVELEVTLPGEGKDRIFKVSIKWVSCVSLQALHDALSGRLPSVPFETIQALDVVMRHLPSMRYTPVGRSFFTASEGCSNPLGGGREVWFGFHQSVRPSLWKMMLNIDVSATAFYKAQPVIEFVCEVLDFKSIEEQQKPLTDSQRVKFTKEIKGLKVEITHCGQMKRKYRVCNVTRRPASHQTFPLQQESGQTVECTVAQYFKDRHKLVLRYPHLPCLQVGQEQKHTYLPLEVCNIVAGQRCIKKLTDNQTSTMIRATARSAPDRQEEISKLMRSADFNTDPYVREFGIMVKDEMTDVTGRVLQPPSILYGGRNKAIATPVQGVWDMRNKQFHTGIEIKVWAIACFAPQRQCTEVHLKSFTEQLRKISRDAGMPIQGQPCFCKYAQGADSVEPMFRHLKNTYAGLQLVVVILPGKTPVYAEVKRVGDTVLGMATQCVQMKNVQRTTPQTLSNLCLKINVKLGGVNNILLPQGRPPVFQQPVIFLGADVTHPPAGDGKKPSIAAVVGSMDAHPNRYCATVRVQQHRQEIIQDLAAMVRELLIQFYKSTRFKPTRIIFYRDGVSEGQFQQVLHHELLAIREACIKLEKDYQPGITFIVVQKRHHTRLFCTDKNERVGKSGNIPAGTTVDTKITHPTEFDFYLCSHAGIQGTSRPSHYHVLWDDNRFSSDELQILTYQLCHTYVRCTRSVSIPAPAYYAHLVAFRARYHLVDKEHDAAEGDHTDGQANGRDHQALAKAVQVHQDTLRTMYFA
# PROTOCOL_NOTES: RNA Bind-n-Seq (nitrocellulose filter binding and sequencing); miR-122 guide loaded in AGO2; 60 min incubation; 30 mM Tris pH 8.0, 100 mM potassium acetate, 2 mM magnesium acetate, 0.5 mM TCEP, 0.005% NP-40, 0.01 mg/ml yeast tRNA; 3 nM AGO2-miR-122, 100 nM RNA library; 60; high values mean tight binding
# SETUP_CONDITIONS: protein: recombinant; tags: His6 (N-terminal, pFastBac HTA)
ENDPOINT: binding signal

Solved cases (3 shown):
[[record]]
binder = "GTGCCTTA (ssRNA, constant regions annealed to DNA blockers; guide miR-122 5' phosphate) RNA 1: GAGUUCUACAGUCCGACGAUCCCAACGUGCCUUACACCUGGAAUUCUCGGGUGCCAA RNA 2: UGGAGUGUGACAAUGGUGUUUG DNA 1: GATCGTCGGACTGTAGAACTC DNA 2: TTGGCACCCGAGAATTCCA"
assay_value = "0.126 fold enrichment over input"

[[record]]
binder = "ATATTTTA (ssRNA, constant regions annealed to DNA blockers; guide miR-122 5' phosphate) RNA 1: GAGUUCUACAGUCCGACGAUCCCAACAUAUUUUACACCUGGAAUUCUCGGGUGCCAA RNA 2: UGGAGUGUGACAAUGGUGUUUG DNA 1: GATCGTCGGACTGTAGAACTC DNA 2: TTGGCACCCGAGAATTCCA"
assay_value = "0.127 fold enrichment over input"

[[record]]
binder = "GTGCCTCA (ssRNA, constant regions annealed to DNA blockers; guide miR-122 5' phosphate) RNA 1: GAGUUCUACAGUCCGACGAUCCCAACGUGCCUCACACCUGGAAUUCUCGGGUGCCAA RNA 2: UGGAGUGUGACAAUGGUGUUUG DNA 1: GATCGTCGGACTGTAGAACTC DNA 2: TTGGCACCCGAGAATTCCA"
assay_value = "0.122 fold enrichment over input"


Q: Return reported binding signal; argument: ACATCCTA (ssRNA, constant regions annealed to DNA blockers; guide miR-122 5' phosphate) RNA 1: GAGUUCUACAGUCCGACGAUCCCAACACAUCCUACACCUGGAAUUCUCGGGUGCCAA RNA 2: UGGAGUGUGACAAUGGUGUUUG DNA 1: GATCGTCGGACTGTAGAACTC DNA 2: TTGGCACCCGAGAATTCCA
Ans: 0.139 fold enrichment over input
